testSystem: GSK-3β (Homo sapiens)
Sequence (P49841 whole entry): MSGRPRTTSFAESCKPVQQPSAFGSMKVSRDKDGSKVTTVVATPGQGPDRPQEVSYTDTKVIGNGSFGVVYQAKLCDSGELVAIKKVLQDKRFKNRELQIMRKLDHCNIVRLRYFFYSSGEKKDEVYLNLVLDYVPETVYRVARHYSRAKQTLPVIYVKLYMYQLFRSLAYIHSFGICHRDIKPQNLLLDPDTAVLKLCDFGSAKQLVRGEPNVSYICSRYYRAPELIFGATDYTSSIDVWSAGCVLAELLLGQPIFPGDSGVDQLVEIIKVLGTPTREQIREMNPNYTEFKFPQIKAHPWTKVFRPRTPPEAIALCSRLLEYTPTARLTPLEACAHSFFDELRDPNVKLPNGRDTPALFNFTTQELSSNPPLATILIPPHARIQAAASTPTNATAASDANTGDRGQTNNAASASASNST
measurementProtocol: Kinase assay GSK-3β
Format: biochemical
setupConditions: Table 2; read-out: Kinase Inhibition IC50 GSK-3β
pIC50: −log10 of the molar value.
Okay, here is how we bin by pIC50: LOW: < 5; MEDIUM: ≥ 5 and < 6; HIGH: ≥ 6

> print(dat)
                                   compound  discretelabel
1  CNc1nc(C)c(-c2ccnc(Nc3ccc(N4CCN(C(C)=O)CC4)cc3)n2)s1 [Compound 61]         MEDIUM
2  Cc1c(-c2ccnc(Nc3ccc(N4CCN(C)CC4)cc3)n2)sc(=O)n1C [Compound 93]           HIGH
3  CNc1nc(C)c(-c2ccnc(Nc3ccc(Cl)c(CO)c3)n2)s1 [Compound 73]         MEDIUM
4  Cc1nc(NC(=O)CNCCOCCO)sc1-c1ccnc(Nc2ccc(N(C)C)cc2)n1 [Compound 29]           HIGH
5  Cc1nc(N)sc1-c1ccnc(Nc2cccc(S(C)(=O)=O)c2)n1 [Compound 84]           HIGH
6  Cc1nc(C)c(-c2ccnc(Nc3ccc(NC(=O)Cn4ccnc4)cc3)n2)s1 [Compound 54]            LOW
7  CCNc1nc(C)c(-c2ccnc(Nc3cccc(CNC(C)=O)c3)n2)s1 [Compound 64]         MEDIUM
8  Cc1nc(NC(=O)CCN2CCOCC2)sc1-c1ccnc(Nc2ccc(F)cc2)n1 [Compound 21]            LOW
9  Cc1nc(C)c(-c2ccnc(Nc3ccc(NC(=O)CN4CCCC4)cc3)n2)s1 [Compound 53]            LOW

---

testSystem: CDK4/cyclin D1 (Homo sapiens)
Sequence (P11802 whole entry): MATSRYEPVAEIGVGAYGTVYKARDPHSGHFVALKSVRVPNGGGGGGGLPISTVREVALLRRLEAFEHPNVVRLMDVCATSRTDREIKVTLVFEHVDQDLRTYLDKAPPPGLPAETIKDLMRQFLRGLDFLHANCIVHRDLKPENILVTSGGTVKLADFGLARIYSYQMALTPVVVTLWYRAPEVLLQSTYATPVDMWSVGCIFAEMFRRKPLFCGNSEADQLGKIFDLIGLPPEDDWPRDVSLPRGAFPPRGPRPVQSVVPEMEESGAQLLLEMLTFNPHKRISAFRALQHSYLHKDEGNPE
Sequence (P24385 whole entry partner): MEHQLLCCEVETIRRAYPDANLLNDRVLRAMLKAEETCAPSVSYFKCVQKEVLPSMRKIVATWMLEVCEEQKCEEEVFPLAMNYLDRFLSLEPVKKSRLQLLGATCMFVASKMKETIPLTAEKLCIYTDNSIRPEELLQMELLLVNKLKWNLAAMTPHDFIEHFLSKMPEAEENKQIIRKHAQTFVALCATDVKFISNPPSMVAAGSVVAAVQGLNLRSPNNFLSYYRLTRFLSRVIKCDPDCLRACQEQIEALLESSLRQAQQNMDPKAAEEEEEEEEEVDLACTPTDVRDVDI
measurementProtocol: Kinase assay CDK4/cyclin D1
Assay type: biochemical
setupConditions: Table 2; read-out: Kinase Inhibition IC50 CDK4 cyclin D1
Listing: IC50 of selected compounds
measureName: IC50 (nM)

> print(dat)
                                 chemsmiles  measurename  recordedmeasurement
1  Cc1nc(NC(=O)CCN2CCOCC2)sc1-c1ccnc(Nc2ccc(F)cc2)n1         IC50                 1300
2  Cc1nc(C)c(-c2ccnc(Nc3ccc(Cl)c(CO)c3)n2)s1         IC50                25000
3  CC(=O)Nc1ccc(Nc2nccc(-c3sc(C)nc3C)n2)cc1         IC50                  370

---

testSystem: CDK2/cyclin E (Homo sapiens)
measurementProtocol: Kinase assay CDK2/cyclin E
Type: biochemical
setupConditions: Table 2; read-out: Kinase Inhibition IC50 CDK2 cyclin E
Method: Kinase assays. […] This was achieved by measurement of incorporation of radioactive phosphate from ATP into appropriate polypeptide substrates. Recombinant protein kinases and kinase complexes were produced or obtained commercially. […] After washing 3 times with 75 mM aq orthophosphoric acid, plates were dried, scintillant added and incorporated radioactivity measured in a scintillation counter (TopCount, Packard Instruments, Pangbourne, Berks, UK). […]
Labelling field: enter condition met if recorded IC50 is less than 600 nM. Enter condition not met if it equals or exceeds that cut-off.

> print(dat)
                                  chemsmiles                    testsystem      discretelabel
 1  Cc1nc(N2CCOCC2)sc1-c1ccnc(Nc2ccc(N(C)C)cc2)n1  CDK2/cyclin E (Homo sapiens)      condition met
 2  CNc1nc(C)c(-c2ccnc(Nc3cccc(CNS(=O)(=O)C(F)(F)F)c3)n2)s1  CDK2/cyclin E (Homo sapiens)      condition met
 3  CCNc1nc(C)c(-c2ccnc(Nc3cccc(CNC(C)=O)c3)n2)s1  CDK2/cyclin E (Homo sapiens)      condition met
 4  CCN(CC)CCNCCC(=O)Nc1nc(C)c(-c2ccnc(Nc3ccc(Cl)cc3)n2)s1  CDK2/cyclin E (Homo sapiens)  condition not met
 5  Cc1nc(N2CCOCC2)sc1-c1ccnc(Nc2cccc([N+](=O)[O-])c2)n1  CDK2/cyclin E (Homo sapiens)      condition met
 6  COc1ccc(Nc2nccc(-c3sc(NC(=O)CCN4CCOCC4)nc3C)n2)cc1  CDK2/cyclin E (Homo sapiens)  condition not met
 7   CCNc1nc(C)c(-c2ccnc(Nc3cccc(CO)c3)n2)s1  CDK2/cyclin E (Homo sapiens)      condition met
 8  Cc1nc(NC(=O)CCN2CCN(C)CC2)sc1-c1ccnc(Nc2cccc([N+](=O)[O-])c2)n1  CDK2/cyclin E (Homo sapiens)      condition met
 9  CNc1nc(C)c(-c2ccnc(Nc3ccc(N4CCN(Cc5ccccc5)CC4)cc3)n2)s1  CDK2/cyclin E (Homo sapiens)      condition met
10  Cc1nc(NS(C)(=O)=O)sc1-c1ccnc(Nc2ccc(F)cc2)n1  CDK2/cyclin E (Homo sapiens)      condition met
11  Cc1nc(C)c(-c2ccnc(Nc3ccc(Cl)c(CO)c3)n2)s1  CDK2/cyclin E (Homo sapiens)  condition not met
12  CNc1nc(C)c(-c2ccnc(Nc3ccc(OCCOC)c([N+](=O)[O-])c3)n2)s1  CDK2/cyclin E (Homo sapiens)      condition met
13  Cc1nc(NC(=O)CCBr)sc1-c1ccnc(Nc2ccc(F)cc2)n1  CDK2/cyclin E (Homo sapiens)      condition met
14  CC[C@@H](N)C(=O)Nc1nc(C)c(-c2ccnc(Nc3cccc([N+](=O)[O-])c3)n2)s1  CDK2/cyclin E (Homo sapiens)      condition met
15  Cc1nc(NC(=O)CCN2CCOCC2)sc1-c1ccnc(Nc2ccc(Cl)cc2)n1  CDK2/cyclin E (Homo sapiens)  condition not met
16  CC(=O)N(C)c1ccc(Nc2nccc(-c3sc(C)nc3C)n2)cc1  CDK2/cyclin E (Homo sapiens)  condition not met
